Every entry's value here was drawn from patent US11713338B2.

# Ratio Ramos/RPMI annotations
# TARGET DESC: integrin α4β1 (RAMOS human cells adhering to VCAM-1) (Homo sapiens, UniProt P05556+P13612)
# Construct: Ramos cells, which express integrin α4β1; host or cells: RAMOS
# Sequence (P13612 34-1032): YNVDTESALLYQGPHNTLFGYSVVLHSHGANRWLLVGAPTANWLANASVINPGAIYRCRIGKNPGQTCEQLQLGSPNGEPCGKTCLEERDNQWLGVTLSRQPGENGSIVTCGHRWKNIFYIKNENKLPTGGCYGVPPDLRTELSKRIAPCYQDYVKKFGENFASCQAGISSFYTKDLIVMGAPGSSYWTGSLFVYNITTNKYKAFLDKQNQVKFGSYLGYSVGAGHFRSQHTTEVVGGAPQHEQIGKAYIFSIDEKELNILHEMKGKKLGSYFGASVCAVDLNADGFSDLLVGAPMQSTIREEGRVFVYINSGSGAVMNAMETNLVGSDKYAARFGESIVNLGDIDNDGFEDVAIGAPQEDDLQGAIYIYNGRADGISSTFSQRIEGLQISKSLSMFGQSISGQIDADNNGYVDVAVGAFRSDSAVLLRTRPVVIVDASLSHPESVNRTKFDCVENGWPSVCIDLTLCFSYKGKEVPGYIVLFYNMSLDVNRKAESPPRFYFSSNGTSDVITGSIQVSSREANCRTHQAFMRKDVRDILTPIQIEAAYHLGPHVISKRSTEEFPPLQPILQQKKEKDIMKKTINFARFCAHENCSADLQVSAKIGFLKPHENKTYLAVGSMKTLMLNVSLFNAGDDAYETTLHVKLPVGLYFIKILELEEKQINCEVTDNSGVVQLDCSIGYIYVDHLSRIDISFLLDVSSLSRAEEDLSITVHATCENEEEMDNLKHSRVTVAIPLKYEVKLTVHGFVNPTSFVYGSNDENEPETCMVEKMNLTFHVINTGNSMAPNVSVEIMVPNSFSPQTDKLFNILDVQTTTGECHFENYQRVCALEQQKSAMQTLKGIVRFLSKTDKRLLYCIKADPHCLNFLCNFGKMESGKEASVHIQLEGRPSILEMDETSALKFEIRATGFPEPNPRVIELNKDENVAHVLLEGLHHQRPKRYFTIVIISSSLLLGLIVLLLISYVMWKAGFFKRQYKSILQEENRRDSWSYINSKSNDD
# Sequence (P05556 21-798): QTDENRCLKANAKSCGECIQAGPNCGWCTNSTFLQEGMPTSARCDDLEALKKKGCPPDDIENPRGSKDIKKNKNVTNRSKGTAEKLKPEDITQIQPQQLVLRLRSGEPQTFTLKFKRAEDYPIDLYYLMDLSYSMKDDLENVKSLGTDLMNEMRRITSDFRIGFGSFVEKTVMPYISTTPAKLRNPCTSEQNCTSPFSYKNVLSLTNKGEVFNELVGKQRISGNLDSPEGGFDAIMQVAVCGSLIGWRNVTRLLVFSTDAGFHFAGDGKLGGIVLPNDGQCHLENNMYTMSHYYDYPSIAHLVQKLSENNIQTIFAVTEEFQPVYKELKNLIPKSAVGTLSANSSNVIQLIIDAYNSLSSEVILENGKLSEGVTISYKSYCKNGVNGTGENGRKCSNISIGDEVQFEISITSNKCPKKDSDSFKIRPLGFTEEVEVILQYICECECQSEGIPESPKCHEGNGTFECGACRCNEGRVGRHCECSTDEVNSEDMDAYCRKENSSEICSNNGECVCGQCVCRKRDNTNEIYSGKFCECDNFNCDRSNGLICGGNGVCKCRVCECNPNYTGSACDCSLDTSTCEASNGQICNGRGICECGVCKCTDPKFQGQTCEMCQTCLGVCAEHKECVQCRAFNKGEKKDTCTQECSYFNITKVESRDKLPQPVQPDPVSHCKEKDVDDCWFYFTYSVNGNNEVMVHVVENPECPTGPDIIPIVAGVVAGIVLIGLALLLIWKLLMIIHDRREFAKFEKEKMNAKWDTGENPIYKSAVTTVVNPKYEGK
# PROTOCOL TEXT: Integrin α4β1-VCAM cell adhesion assay (RAMOS cells)
# Format: cell-based
# MEASUREMENT CONTEXT: ratio of cell adhesion IC50s, Ramos α4β1/VCAM over RPMI8866 α4β7/MAdCAM
Lab note: record the figure alone, no unit after it.

Worked cases, Ratio Ramos/RPMI given:
CC(C)C[C@@H]1NC(=O)c2ccc(-c3ccc(N4CCN(C(=O)C5(C(=O)N6CCN(c7ccc(-c8ccc9cc8CNC(=O)[C@@H]8CCCN8[C@H](C(=O)NC(C)(C)C)[C@H](C)NC(=O)[C@H]([C@@H](C)O)NC(=O)[C@H](CC(=O)O)NC(=O)[C@H](CC(C)C)NC9=O)cc7)CC6)Cc6ccccc6C5)CC4)cc3)c(c2)CNC(=O)[C@@H]2CCCN2[C@H](C(=O)NC(C)(C)C)[C@H](C)NC(=O)[C@H]([C@@H](C)O)NC(=O)[C@H](CC(=O)O)NC1=O 31
CC(C)C[C@@H]1NC(=O)c2ccc(-c3ccc(N4CCN(C(=O)C56CC7CC(C5)CC(C(=O)N5CCN(c8ccc(-c9ccc%10cc9CNC(=O)[C@@H]9CCCN9[C@H](C(=O)NC(C)(C)C)[C@H](C)NC(=O)[C@H]([C@@H](C)O)NC(=O)[C@H](CC(=O)O)NC(=O)[C@H](CC(C)C)NC%10=O)cc8)CC5)(C7)C6)CC4)cc3)c(c2)CNC(=O)[C@@H]2CCCN2[C@H](C(=O)NC(C)(C)C)[C@H](C)NC(=O)[C@H]([C@@H](C)O)NC(=O)[C@H](CC(=O)O)NC1=O 30
CC(C)C[C@@H]1NC(=O)c2ccc(-c3ccc(N4CCN(C(=O)CC[C@H](N)C(=O)N5CCN(c6ccc(-c7ccc8cc7CNC(=O)[C@@H]7CCCN7[C@H](C(=O)NC(C)(C)C)[C@H](C)NC(=O)[C@H]([C@@H](C)O)NC(=O)[C@H](CC(=O)O)NC(=O)[C@H](CC(C)C)NC8=O)cc6)CC5)CC4)cc3)c(c2)CNC(=O)[C@@H]2CCCN2[C@H](C(=O)NC(C)(C)C)[C@H](C)NC(=O)[C@H]([C@@H](C)O)NC(=O)[C@H](CC(=O)O)NC1=O 3
CC(C)C[C@@H]1NC(=O)C[C@H](CCCCN)N(C)C(=O)[C@H](CCCCNC(=O)CCCCCCCC(=O)NCCCC[C@@H]2NC(=O)[C@@H]3CCCN3[C@H](C(=O)NC(C)(C)C)[C@H](C)NC(=O)[C@H]([C@@H](C)O)NC(=O)[C@H](CC(=O)O)NC(=O)[C@H](CC(C)C)NC(=O)C[C@H](CCCCN)N(C)C2=O)NC(=O)[C@@H]2CCCN2[C@H](C(=O)NC(C)(C)C)[C@H](C)NC(=O)[C@H]([C@@H](C)O)NC(=O)[C@H](CC(=O)O)NC1=O 257

State, in one line, measured Ratio Ramos/RPMI of CC(C)C[C@@H]1NC(=O)c2ccc(-c3ccc(N4CCN(C(=O)CCCCCCCCCCC(=O)N5CCN(c6ccc(-c7ccc8cc7CNC(=O)[C@@H]7CCCN7[C@H](C(=O)NC(C)(C)C)[C@H](C)NC(=O)[C@H]([C@@H](C)O)NC(=O)[C@H](CC(=O)O)NC(=O)[C@H](CC(C)C)NC8=O)cc6)CC5)CC4)cc3)c(c2)CNC(=O)[C@@H]2CCCN2[C@H](C(=O)NC(C)(C)C)[C@H](C)NC(=O)[C@H]([C@@H](C)O)NC(=O)[C@H](CC(=O)O)NC1=O
65
